Source listed as patent US10757937B2.

For each record, write down the corresponding remaining activity at 50 µM.
measurementTarget: PYL5 (Arabidopsis thaliana)
Construct: 6X-His; made in house; host or cells: E. coli BL21[DE3]pLysS
Sequence (Q9FLB1 whole entry, one chain of several): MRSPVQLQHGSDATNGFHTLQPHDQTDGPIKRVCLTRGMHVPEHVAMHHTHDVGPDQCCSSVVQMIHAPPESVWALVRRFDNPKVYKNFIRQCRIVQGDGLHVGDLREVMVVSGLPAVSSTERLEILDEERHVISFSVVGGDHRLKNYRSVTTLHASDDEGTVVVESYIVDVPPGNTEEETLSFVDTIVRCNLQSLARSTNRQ
testSummary: receptor-mediated PP2C (HAB1) inhibition in vitro assay
Type: biochemical
protocolConditions: 50 uM of the test compound
Supply the numeric figure in %, leaving out any unit text.

What value of remaining activity at 50 µM has been recorded for this entry: `O=C(NS(=O)(=O)Cc1ccc(F)cc1)C1(c2ccccc2)CCCCC1`
103

Can you handle `CC1(C)CCC(C(=O)NS(=O)(=O)Cc2ccc(C#N)cc2)(c2ccc(F)cc2)CC1` next?
103

Can you handle `N#Cc1ccc(CS(=O)(=O)NC(=O)C2(c3ccsc3)CCCCC2)cc1` next?
68.5

Can you handle `CC(C)COC(=O)NS(=O)(=O)Cc1ccc(C#N)cc1` next?
23.6

Can you handle `N#Cc1ccc(CS(=O)(=O)NC(=O)C(C2CCCCC2)C2CCCCC2)cc1` next?
110

---

measurementTarget: PYL9 (Arabidopsis thaliana)
Construct: 6X-His; made in house; host or cells: E. coli BL21[DE3]pLysS
Sequence (Q84MC7 whole entry): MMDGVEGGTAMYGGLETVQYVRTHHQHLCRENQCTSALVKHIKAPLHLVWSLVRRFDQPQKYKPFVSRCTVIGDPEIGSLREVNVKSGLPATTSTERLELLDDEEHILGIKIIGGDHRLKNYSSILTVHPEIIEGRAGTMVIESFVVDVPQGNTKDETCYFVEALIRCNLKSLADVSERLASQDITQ
Sequence (Q9CAJ0 23-511 partner): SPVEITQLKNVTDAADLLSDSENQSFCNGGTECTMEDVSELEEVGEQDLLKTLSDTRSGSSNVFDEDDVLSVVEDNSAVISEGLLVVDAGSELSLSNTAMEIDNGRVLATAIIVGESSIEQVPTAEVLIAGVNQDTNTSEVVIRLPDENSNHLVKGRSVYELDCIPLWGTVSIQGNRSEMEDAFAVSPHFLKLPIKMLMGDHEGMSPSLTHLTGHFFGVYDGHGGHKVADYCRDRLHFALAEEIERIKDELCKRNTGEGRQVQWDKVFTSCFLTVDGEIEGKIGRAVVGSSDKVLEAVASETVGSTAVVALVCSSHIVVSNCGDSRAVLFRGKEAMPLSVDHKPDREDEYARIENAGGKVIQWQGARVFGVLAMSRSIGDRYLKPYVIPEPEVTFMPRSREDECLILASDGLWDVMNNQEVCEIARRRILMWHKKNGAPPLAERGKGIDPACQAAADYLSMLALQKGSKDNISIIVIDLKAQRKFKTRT
testSummary: receptor-mediated PP2C (HAB1) inhibition in vitro assay
Type: biochemical
protocolConditions: 50 uM of the test compound
propertyLabel: remaining activity at 50 µM (%)
Supply the numeric figure in %, leaving out any unit text.

What value of remaining activity at 50 µM has been recorded for this entry: N#Cc1ccc(CS(=O)(=O)NC(=O)C2(c3cccs3)CCCCC2)cc1 [Compound 75]
6.9

Can you handle N#Cc1ccc(CS(=O)(=O)NC(=O)C2(c3ccccc3)CCCCC2)cc1 [Compound 69] next?
5.8

Can you handle O=C(NS(=O)(=O)Cc1ccc(F)cc1)C1(c2ccccc2)CCCCC1 [Compound 64] next?
91.1

Can you handle N#Cc1ccc(CS(=O)(=O)NC(=O)C2(c3ccsc3)CCCCC2)cc1 [Compound 78] next?
6.1

Can you handle O=C(NS(=O)(=O)Cc1ccc([N+](=O)[O-])cc1)C1(c2ccccc2)CCCCC1 [Compound 63] next?
75.5

Can you handle CC(C)COC(=O)NS(=O)(=O)Cc1ccc(C#N)cc1 [Compound 65] next?
18.6

Can you handle N#Cc1ccc(CS(=O)(=O)NC(=O)C(C2CCCCC2)C2CCCCC2)cc1 [Compound 73] next?
56.3

Can you handle CC1(C)CCC(C(=O)NS(=O)(=O)Cc2ccc(C#N)cc2)(c2ccc(F)cc2)CC1 [Compound 68] next?
22.6

Can you handle N#Cc1ccc(CS(=O)(=O)NC(=O)C(c2ccc(F)cc2)c2ccc(F)cc2)cc1 [Compound 72] next?
85.8

Can you handle N#Cc1ccc(CS(=O)(=O)NC(=O)C2(c3ccsc3)CCCCC2)cc1Br [Compound 106] next?
5.4

Can you handle CC1CCC(C(=O)NS(=O)(=O)Cc2ccc(C#N)cc2)(c2ccc(F)cc2)CC1 (stereo not drawn) [Compound 67] next?
8

Can you handle N#Cc1ccc(CS(=O)(=O)NC(=O)C(c2ccccc2)c2ccccc2)cc1 [Compound 71] next?
81.8

---

measurementTarget: PYL8 (Arabidopsis thaliana, UniProt Q9FGM1)
Construct: 6X-His; made in house; host or cells: E. coli BL21[DE3]pLysS
Sequence (Q9FGM1 whole entry): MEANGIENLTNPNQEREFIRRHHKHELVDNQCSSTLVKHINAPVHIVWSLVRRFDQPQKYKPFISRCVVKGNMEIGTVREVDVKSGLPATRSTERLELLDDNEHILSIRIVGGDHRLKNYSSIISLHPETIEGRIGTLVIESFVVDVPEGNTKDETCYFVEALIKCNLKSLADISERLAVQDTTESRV
Sequence (Q9CAJ0 23-511 partner): as the sequence (Q9CAJ0 23-511 partner) above
testSummary: receptor-mediated PP2C (HAB1) inhibition in vitro assay
Assay type: biochemical
protocolConditions: Table XII-B; calculated from dose curves; read-out: PP2C Activity (IC50 in uM) PYL8
propertyLabel: IC50 (µM)
Supply the numeric figure in µM, leaving out any unit text.

# value lookup — system PYL8 (Arabidopsis thaliana, UniProt Q9FGM1), readout IC50, item CC1CCC(C(=O)NS(=O)(=O)Cc2ccc(C#N)cc2)(c2ccc(F)cc2)CC1 (centres unmarked) [Compound 67]
9.6

Can you handle N#Cc1ccc(CS(=O)(=O)NC(=O)C2(c3cccs3)CCCCC2)cc1 [Compound 75] next?
0.134

Can you handle N#Cc1ccc(CS(=O)(=O)NC(=O)C2(c3ccsc3)CCCCC2)cc1 [Compound 78] next?
0.073

Can you handle N#Cc1ccc(CS(=O)(=O)NC(=O)C2(c3ccsc3)CCCCC2)cc1Br [Compound 106] next?
0.037
